ASSAY TARGET: T1, cynomolgus CD38 ECD (cynomolgus, UniProt Q5VAN0 44-301, biotinylated on the AviTag during preparation)
T1 construct: also called Cyno-CD38; Avi-Cyno CD38 ECD
ASSAY METHOD TEXT: SPR (Biacore 8K), antibody captured, antigen injected;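 also: antibodies held on a CM5 chip through anti-human IgG Fc, antigen in 3-fold serial dilutions, 1 min association then 10 min dissociation at 25 °C, 1:1 Langmuir global fit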
We begin with a simple list: items and their reported koff.
RECORDED METRIC: koff (s⁻¹)

- 25C3 (antibody, human IgG1, kappa, V domains shown, Rabbit-human chimeric anti-CD38: rabbit VH and VL on human IgG1 and kappa constant regions) VH: QEQLEESGGDLVKPGASLTLTCKASGFSFSSAYDMCWVRQAPGKGLEWVACLYTVSSDSIYYASWAKGRFTISRTSSTTVTLQMTSLTAADTATYFCARDGDYFALWGPGTLVTVSS VL: DIVMTHTPASVEAAVGGTVTIKCQASQNIGGYLSWYQQKPGQRPKLLIYRASTLASGVPSRFKGSGSGTQFTLTISDLESADAATYYCQTYYYSGSSRYWAFGGGTEVVVKR: 0.000187
- 23B3 (antibody, human IgG1, kappa, V domains shown, Rabbit-human chimeric anti-CD38: rabbit VH and VL on human IgG1 and kappa constant regions) VH: QSVEESGGRLVTPGTPLTLTCTVSGFSLSNYDMTWVRQAPGRGLEWIGVISSGDNTNYARWAKGRFTISKTSSTTVDLKITSPTTEDTATYFCARILYNKGRYYFTFWGPGTLVTVSS VL: AQVLTQTPSSVSAAVGGTVTINCQSSQSIANSDELAWYQQKPGQPPKLLIYDASTLAPGVPSRFSGSGSGTQFTLTISGVQSDDAATYYCQGTVYDSGWYAAFGGGTEVVVKR: 9.46e-05
- 17E9 (antibody, human IgG1, kappa, V domains shown, Rabbit-human chimeric anti-CD38: rabbit VH and VL on human IgG1 and kappa constant regions) VH: QSVEESGGRLVTPGTPLTLTCTASGFSLSRYYVTWVRQAPGKGLEWIGIIYISGTTYYATWAKGRFTISKSATTVDLRIASPTTEDTATYFCAAAWPVGTYVLPLWGPGTLVTVSS VL: AAVLTQTPSPVSAAVGGTVTIKCQSSQSVVNANNLSWYQQKPGQPPKLLIYLASTLASGVPSRFSGSGSGTQFTLTISSVQSDDAATYYCLGVYDDDGDNAFGGGTEVVVKR: 0.000166
